OD492 nm by entry:
EXPERIMENTAL TARGET: T1, HCV Core1-169 recombinant antigen (hepatitis C virus (HCV-1), UniProt P26664 1-169)
T1 sequence: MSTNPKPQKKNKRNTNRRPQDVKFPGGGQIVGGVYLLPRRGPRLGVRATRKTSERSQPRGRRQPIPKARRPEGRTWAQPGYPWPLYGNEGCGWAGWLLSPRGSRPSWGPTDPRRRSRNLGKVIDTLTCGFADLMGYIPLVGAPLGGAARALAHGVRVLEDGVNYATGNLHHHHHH
PROCEDURE TEXT: sandwich EIA, 25 ng/ml core1-169; capture mAb 208A-692

BINDER: HCV 208A-293 monoclonal antibody (antibody, V domains shown) VH: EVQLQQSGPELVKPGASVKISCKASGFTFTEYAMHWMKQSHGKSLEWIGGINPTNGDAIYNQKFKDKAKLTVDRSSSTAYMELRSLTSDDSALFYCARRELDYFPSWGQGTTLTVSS VL: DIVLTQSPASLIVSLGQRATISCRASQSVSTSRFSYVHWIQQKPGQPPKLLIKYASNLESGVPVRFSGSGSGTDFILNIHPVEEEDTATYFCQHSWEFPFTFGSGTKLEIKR
QUANTITY UNIT: OD492
OD492 nm: 0.34
--
BINDER: HCV 208A-557 monoclonal antibody (antibody, V domains shown) VH: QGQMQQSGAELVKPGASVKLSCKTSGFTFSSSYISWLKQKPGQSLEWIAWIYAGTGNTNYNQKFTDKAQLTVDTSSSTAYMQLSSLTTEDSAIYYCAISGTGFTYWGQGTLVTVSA VL: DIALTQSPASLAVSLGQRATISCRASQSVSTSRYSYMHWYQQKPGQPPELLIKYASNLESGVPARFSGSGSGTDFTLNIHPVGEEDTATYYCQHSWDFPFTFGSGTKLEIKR
QUANTITY UNIT: OD492
OD492 nm: 0.13
--
BINDER: 208A-207-271 monoclonal antibody (antibody, V domains shown) VH: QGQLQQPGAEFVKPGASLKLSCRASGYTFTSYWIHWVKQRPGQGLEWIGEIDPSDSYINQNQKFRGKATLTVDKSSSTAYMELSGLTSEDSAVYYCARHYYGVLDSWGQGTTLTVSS VL: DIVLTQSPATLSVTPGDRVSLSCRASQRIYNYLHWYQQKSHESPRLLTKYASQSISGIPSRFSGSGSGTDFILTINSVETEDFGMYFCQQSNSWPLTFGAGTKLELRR
QUANTITY UNIT: OD492
OD492 nm: 0.42
--
BINDER: 208B-395-334 monoclonal antibody (antibody, V domains shown) VH: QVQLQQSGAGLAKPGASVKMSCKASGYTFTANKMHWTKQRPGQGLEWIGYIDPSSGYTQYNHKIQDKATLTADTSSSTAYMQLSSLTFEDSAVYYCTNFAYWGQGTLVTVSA VL: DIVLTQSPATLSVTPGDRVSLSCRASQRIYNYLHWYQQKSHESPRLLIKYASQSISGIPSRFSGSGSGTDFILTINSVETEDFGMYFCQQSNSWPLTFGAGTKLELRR
QUANTITY UNIT: OD492
OD492 nm: 0.15
--
BINDER: 208B-612-226 monoclonal antibody (antibody, V domains shown) VH: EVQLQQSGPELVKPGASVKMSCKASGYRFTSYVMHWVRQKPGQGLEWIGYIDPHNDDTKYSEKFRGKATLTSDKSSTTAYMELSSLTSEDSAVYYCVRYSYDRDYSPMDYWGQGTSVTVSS VL: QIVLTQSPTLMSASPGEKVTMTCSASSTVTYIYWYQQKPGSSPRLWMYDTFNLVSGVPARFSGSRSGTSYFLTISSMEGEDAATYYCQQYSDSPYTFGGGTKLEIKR
QUANTITY UNIT: OD492
OD492 nm: 0.18
--
BINDER: HCV 208B-1096 monoclonal antibody (antibody, V domains shown) VH: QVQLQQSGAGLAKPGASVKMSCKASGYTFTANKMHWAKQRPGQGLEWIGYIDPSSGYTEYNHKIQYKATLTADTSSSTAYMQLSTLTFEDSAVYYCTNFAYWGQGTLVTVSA VL: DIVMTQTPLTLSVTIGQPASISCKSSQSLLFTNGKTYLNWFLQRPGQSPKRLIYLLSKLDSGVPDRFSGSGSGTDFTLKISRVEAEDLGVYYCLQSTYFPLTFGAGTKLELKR
QUANTITY UNIT: OD492
OD492 nm: 0.15
--
BINDER: HCV 208A-692 monoclonal antibody (antibody, V domains shown) VH: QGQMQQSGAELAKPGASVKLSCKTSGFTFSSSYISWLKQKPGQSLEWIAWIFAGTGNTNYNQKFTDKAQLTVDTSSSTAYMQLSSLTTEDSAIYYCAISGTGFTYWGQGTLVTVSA VL: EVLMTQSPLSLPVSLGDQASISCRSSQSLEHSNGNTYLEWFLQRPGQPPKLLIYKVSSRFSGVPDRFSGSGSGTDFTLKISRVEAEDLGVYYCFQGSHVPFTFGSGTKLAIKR
QUANTITY UNIT: OD492
OD492 nm: 0.35
